B1: mRNA-splicing (parent)
chain: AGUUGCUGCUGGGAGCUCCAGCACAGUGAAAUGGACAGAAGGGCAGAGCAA

Variants of: B1
assay explanation: exon inclusion enrichment index; higher = more inclusion; WT1 exon 5 minigene, HEK293
Listing of recorded exon inclusion enrichment index by entry.
Field format: numeric only.

The following variants have reported results that may help.
G5C C6G U7C U10C G13U A14G : 1.28
G5C U7A G8C C9U U10C : 0.259
C6A U7C C9A U10C U32C G33C : 4
G5C C6U G8C C9U U10C C18A : 1.39

Lab note: measured exon inclusion enrichment index of G5A C6G U7G C9A A20U G21C was 0.00185

Summary for this variant, C6A U7C C9A U10C G33A G34A : exon inclusion enrichment index is 0.865

exon inclusion enrichment index for G5C C6A U7C G8A U10A C44U A45U is 0.0623

# variant G5U G8U C9U G13U A14U ; its exon inclusion enrichment index = 0.0249
